# target-system: GABARAPL2 (Homo sapiens, UniProt P60520)
# Construct: insertion of full-length human GABARAP, GABARAP-L1, LC3A, and LC3C, and EcoRI and NotI restrictions sites for cloning of LC3B and GABARAP-L2; GST (followed by 3C protease site) (N); made in house; host or cells: bacteria (E. coli BL21 (DE3) pLysS is stated for the GST-ATG8 proteins of the overlay assay)
# Sequence (P60520 whole entry): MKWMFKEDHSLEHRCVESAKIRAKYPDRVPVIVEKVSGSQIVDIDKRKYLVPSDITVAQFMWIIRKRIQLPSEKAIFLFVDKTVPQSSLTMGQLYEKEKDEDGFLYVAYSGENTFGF
# protocol-notes: BLI, LIR peptide binding to GABARAPL2
# cond: read-out: Kd (best-fit value)
Ends that are not written are not given here.
property-name: Kd
Hi, when you answer, please include the unit after the number. Thanks!

Below, 3 sequences whose answers are already recorded.
Ask: Input DDFVMVPAQFPGDLV [ULK1 (aa 355-369)] , output reported Kd.
Result: 2210 nM

Ask: Supply measured Kd of DSSCDTDDFVMVPA [ULK1 (aa 349-362)] in your reply.
Result: 712 nM

Ask: Find the measured Kd of SQKSDEEDFVKVEDLALKLTI [PCM1 P1962A] and report it.
Result: 10500 nM

Quick request: Kd for each listed item, please.
1. DSSCDTDDFVMVPAQF [ULK1 (aa 349-364)]
2. SQKSDEEDFVKIEDLPLKLTI [PCM1 V1959I]

Result:
534 nM
7580 nM

Ask: State, in one line, measured Kd of DSSCDTDDFVMV [ULK1 (aa 349-360)]
Result: 1090 nM

* * *

# target-system: GABARAPL1 (Homo sapiens)
# Construct: insertion of full-length human GABARAP, GABARAP-L1, LC3A, and LC3C, and EcoRI and NotI restrictions sites for cloning of LC3B and GABARAP-L2; GST (followed by 3C protease site) (N); made in house; host or cells: bacteria (E. coli BL21 (DE3) pLysS is stated for the GST-ATG8 proteins of the overlay assay)
# protocol-notes: BLI, LIR peptide binding to GABARAPL1
# cond: immobilised biotinylated LIR peptide, pH 7.5, 25 °C, mean ± s.d., n = 2–4, pictures print no unit, µM as, read-out: Kd, LIR peptide to GABARAPL1
Ends that are not written are not given here.
property-name: Kd (µM)
One number for each entry, in µM.

Ask: Please report Kd for the following sequence: SQKSDEEDFVKIEDLPLKLTI [Γ3]
Result: 1.1

* * *

# target-system: GABARAPL1 (Homo sapiens, UniProt Q9H0R8)
# Construct: insertion of full-length human GABARAP, GABARAP-L1, LC3A, and LC3C, and EcoRI and NotI restrictions sites for cloning of LC3B and GABARAP-L2; GST (followed by 3C protease site) (N); made in house; host or cells: bacteria (E. coli BL21 (DE3) pLysS is stated for the GST-ATG8 proteins of the overlay assay)
# Sequence (Q9H0R8 whole entry): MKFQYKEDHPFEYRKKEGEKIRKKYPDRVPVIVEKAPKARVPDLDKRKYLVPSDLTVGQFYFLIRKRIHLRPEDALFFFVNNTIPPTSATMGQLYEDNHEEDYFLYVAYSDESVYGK
# protocol-notes: BLI, LIR peptide binding to GABARAPL1
# cond: Fig. 4c, fit of response vs GABARAPL1 concentration, n=2 independent experiments, read-out: Kd (best-fit value)
Ends that are not written are not given here.
For each record, write down the corresponding pKd.
Give bare numbers, as −log10 of the molar value.

Below: 3 sequences and their reported pKd.
Ask: Name the recorded pKd of the item YRPPDDAVFDIITDEELCQIQ [FYCO1 WT] in your answer.
Result: 6.05

Ask: Answer with the recorded pKd of SQKSDEEDFDIIEDLPLKLTI [PCM1 V1956D/ K1957I/ V1958I] only.
Result: 6.04

Ask: Item SQKSDEEDFVKIEDLPLKLTI [PCM1 V1959I] : provide pKd
Result: 5.97

Others:
Ask: Please report the measured pKd for SQKSDEEDFVKVEDLALKLTI [PCM1 P1962A]
Result: 6.06
